assay: clinical; format: in vivo, human; conditions: human, in vivo, po, second subsequent day; read-out: subsequent daily serum digitoxin level

- molecule: "C[C@H]1O[C@@H](O[C@H]2[C@@H](O)C[C@H](O[C@H]3[C@@H](O)C[C@H](O[C@H]4CC[C@@]5(C)[C@H](CC[C@@H]6[C@@H]5CC[C@]5(C)[C@@H](C7=CC(=O)OC7)CC[C@]65O)C4)O[C@@H]3C)O[C@@H]2C)C[C@H](O)[C@@H]1O [digitoxin]"
  concentration at 48 h [ng/mL]: 31.6

----------
Experiment: clinical
Format: in vivo, human
Conditions: human, in vivo, po, first subsequent day; read-out: subsequent daily serum digitoxin level
Method: A person was admitted to this center 3 hours after having ingested 100 tablets of 0.1mg of digitoxin. They had vomited once. Physical examination was unrevealing. […] The P-R interval was 0.24 seconds. Serum was obtained for assay, urine collection was begun, and vigorous gastric lavage was instituted. Apparent serum digitoxin on admission was 51.0 Ng/ml, a value close to that of another patient whose atrial fibrillation was under satisfactory control on digitoxin 0.1mg/day. […]
parameter: concentration at 24 h

- smiles: "C[C@H]1O[C@@H](O[C@H]2[C@@H](O)C[C@H](O[C@H]3[C@@H](O)C[C@H](O[C@H]4CC[C@@]5(C)[C@H](CC[C@@H]6[C@@H]5CC[C@]5(C)[C@@H](C7=CC(=O)OC7)CC[C@]65O)C4)O[C@@H]3C)O[C@@H]2C)C[C@H](O)[C@@H]1O"
  parameter: "concentration at 24 h"
  result: "0.041 µg/mL"
